# STUDY SYSTEM: T1, human TMEM106B (human, UniProt Q9NUM4 2-274)
# T1 construct: full-length, transiently expressed on HEK293 cells, or natively expressed on HeLa, U251 and A549 cells (the cell is named under assay); also the source of the Pepscan peptides; also called huTMEM106B; huTMEM
# TEST NAME: FACS A549;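 note: flow cytometry of cells incubated on ice for 1 h with hybridoma supernatant or purified antibody at 10 µg/mL, dead propidium iodide-positive cells gated out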
MEASURED PROPERTY: MFI
State the value with its unit after it.

BINDER	MEASURED PROPERTY	RECORDED VALUE
TM-45 (antibody, V domains shown) VH: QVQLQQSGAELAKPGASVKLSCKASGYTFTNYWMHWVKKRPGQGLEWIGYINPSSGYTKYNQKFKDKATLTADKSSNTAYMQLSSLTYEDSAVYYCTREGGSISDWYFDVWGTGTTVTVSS VL: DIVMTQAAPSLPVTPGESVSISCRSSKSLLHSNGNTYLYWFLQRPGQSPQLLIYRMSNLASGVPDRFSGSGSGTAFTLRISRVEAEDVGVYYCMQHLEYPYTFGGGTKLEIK	MFI	819 MFI
TM-13 (antibody, V domains shown) VH: QVQLQQSGAELVKPGASVKMSCKASGYTFTTFPIEWMKQSHGKGLEWIGNFHPYNDDTKYNEKFKGKATLTVDKSSSTVYLDLSRLTSDDSAVYYCARYFYGGMDYWGQGTSVTVSS VL: DIQMTQSPASLSVSVGETVTITCRASENIYSSLGWYQQKQGESPQLLVFAATNLADGVPSRFSGSGSGTQYSLKINSLQSEDFGTYYCQHLWSIPWTFGGGTRLEIK	MFI	1260 MFI
TM-29 (antibody, V domains shown) VH: QVQLRQSGAELVRPGASVKLSCKASGYTFTDYYINWVKQRPGQGLEWIARIYPGSGYTYYNEKFKGKATLTAEGSSNTAYMQLSSLTSEDSAVYFCANHYTNPFAYWGQGTLVTVSA VL: DIVMTQAAFSNPVTLGTSASISCRSSKSLLHYNGITYLYWYLQKPGQSPQLLIYQMSNLASGVPDRFSSSGSGTDFTLRISRVEAEDVGVYYCAQNLELPYTFGGGTKLEIK	MFI	1410 MFI
TM-11 (antibody, V domains shown) VH: QVQLKQSGPGQVQPSQSLSITCTVSGFSLSDYGVHWVRQSPGKGLEWLGVIWNNGNTDYNAAFISRLSINKDNSKSQVFFKMTSLQADDTAIYYCVRSLRPLHFDYWGQGTTVTVSS VL: DIVMTQSPSSLTMSVGQKVTMHCKSSQSLLNSNNLQNYLAWYQQKPGQSPTLLVYFASIRESGVPDRFIGSGSGTDFTLTISSVQAEDLADYFCQQHYNTPFTFGSGTKLEIR	MFI	1340 MFI
TM-17 (antibody, V domains shown) VH: QVQLQQSGAELIRPGTSVKVSCKASGYAFTDYLIEWVKQRPGQGLEWIGVINPGSGGTNYNEKFKGKAKLTADKSSSTAYMQLSSLTSEDSAVYFCVRSSYGVYVAYPMDYWGQGTSVTVSS VL: DIQMTQSPSSLSASLGERVSLTCRASQDIGSNLNWLQQEPDGTIKRLIYATSSLDSGVPKRFSGSRSGSDYSLTISSLESEDFVDYYCLQYASSPRTFGGGTKLEIK	MFI	953 MFI
TM-27 (antibody, V domains shown) VH: QVQLQQSGAELVRPGTSVKVSCKASGYALTNYLIEWVKQRPGQGLEWIGVINPGSGSTKYNEKFKGKATLTADKSSSTAYMQLSSLTSEDSAVYFCARIIYDHDWYFDVWGTGTTVTVSS VL: QIVLTQSPAIMSASPGEKVTISCSASSSISYMYWYQQKPGSSPKPWIYRTSTLASGVPARFSGSGSGTSYSLTISSMEAEDAATYYCQQYHSYPRTFGGGTKLEIK	MFI	1930 MFI

// next item, MFI requested
The reported MFI of the binder TM-19 (antibody, V domains shown) VH: DVQLQQSGAELVRPGASVKLSCTASGFNIKDYYMYWVKQRPEQGLEWIGRIDPEDGDTENAPKFRGMATMTADTSSNTAYLQLNSLTSEDTAVYYCTTRIGNLYHVMDYWGHGTSVTVSS VL: DVLMTQTPLSLPVSLGDQASISCRSSQSIVHSNGNTYLEWYLQKPGQAPKLLIDKVFNRFSGVPDRFSGSGSGTDFTLKISRVEAEDLGVYYCFQGSHVPFTFGSGTKLEIK was 1820 MFI
